# Experimental System: human progesterone receptor B (Homo sapiens, UniProt P06401)
# Sequence (P06401 1-933): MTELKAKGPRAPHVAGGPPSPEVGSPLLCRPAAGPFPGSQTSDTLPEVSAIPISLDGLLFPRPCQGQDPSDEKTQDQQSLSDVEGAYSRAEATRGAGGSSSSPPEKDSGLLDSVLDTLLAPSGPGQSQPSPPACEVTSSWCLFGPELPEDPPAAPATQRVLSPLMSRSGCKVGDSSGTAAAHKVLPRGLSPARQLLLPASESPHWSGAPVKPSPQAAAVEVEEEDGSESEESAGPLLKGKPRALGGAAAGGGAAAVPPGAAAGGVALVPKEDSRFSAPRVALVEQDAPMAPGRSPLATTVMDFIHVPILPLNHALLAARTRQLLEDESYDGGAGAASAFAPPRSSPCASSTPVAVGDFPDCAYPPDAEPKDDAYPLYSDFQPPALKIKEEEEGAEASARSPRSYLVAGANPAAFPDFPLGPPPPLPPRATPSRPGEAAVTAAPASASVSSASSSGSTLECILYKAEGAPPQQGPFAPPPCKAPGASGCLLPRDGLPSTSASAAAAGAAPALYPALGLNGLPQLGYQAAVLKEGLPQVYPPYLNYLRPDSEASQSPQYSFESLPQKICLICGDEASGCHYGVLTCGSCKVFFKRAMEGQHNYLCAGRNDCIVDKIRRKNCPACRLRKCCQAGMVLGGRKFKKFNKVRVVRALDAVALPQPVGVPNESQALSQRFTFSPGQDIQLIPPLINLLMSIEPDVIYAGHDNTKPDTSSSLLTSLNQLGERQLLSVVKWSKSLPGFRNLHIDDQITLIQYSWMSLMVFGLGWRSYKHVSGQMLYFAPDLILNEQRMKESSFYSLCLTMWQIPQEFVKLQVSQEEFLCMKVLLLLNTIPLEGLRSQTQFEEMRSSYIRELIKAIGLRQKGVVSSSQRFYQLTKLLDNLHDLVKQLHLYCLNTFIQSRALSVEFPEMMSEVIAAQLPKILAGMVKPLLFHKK
# Run Description: Progesterone receptor-antagonistic action in stably transfected SK-N-MC cells, MMTV-LUC reporter (PR-B)
# Experimental Conditions: antagonistic potency vs 0.1 nmol/l promegestone, 24 hours
Reported Property: IC50 (nM)

[P] CCOC(=O)c1ccc(NC(=O)NCc2ccc([C@H]3C[C@@]4(C)[C@@H](CC[C@@]4(O)C(F)(F)C(F)(F)F)[C@@H]4CCC5=CC(=O)CCC5=C43)cc2)cc1 [Example 36]
[Q] C[C@]12C[C@H](c3ccc([C@@H]4CC4CO)cc3)C3=C4CCC(=O)C=C4CCC3C1CC[C@@]2(O)C(F)(F)C(F)(F)F (single isomer, unassigned) [Example 6A]
Between the entries labelled P and Q , which has a larger IC50 value on record? Output the label that corresponds to your choice. P
(P: 0.8 nM, Q: 0.1 nM)

----------
# Experimental System: UniProt P06401
# Sequence (P06401 1-933): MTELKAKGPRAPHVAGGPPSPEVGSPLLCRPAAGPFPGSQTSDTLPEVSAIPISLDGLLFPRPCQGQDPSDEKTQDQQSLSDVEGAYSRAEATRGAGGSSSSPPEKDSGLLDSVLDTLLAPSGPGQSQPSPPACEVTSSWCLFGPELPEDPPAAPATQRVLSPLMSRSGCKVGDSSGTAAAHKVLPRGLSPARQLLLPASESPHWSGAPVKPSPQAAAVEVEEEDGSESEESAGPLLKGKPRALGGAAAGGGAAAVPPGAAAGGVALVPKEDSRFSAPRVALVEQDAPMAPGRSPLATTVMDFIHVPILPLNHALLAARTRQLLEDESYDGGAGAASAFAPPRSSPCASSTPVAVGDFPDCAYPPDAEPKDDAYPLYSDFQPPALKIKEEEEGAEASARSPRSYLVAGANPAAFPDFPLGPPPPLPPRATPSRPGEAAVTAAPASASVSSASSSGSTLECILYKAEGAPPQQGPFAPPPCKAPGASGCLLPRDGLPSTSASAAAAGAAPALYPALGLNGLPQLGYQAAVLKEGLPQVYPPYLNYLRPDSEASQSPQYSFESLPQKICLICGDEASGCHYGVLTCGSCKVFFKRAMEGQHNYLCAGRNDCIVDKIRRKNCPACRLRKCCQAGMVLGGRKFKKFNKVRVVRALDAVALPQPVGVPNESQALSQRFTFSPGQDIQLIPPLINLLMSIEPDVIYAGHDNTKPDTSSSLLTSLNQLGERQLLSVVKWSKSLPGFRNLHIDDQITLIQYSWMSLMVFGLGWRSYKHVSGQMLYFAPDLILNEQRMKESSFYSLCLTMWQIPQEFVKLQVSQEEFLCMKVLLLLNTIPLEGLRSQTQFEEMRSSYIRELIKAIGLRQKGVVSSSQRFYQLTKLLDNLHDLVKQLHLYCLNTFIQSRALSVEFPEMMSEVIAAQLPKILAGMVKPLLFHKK
# Run Description: Progesterone receptor-antagonistic action in stably transfected SK-N-MC cells, MMTV-LUC reporter (PR-B)
# Experimental Conditions: antagonistic potency vs 0.1 nmol/l promegestone, 24 hours
Reported Property: IC50 (nM)

CC(C)NC(=O)NCc1ccc([C@H]2C[C@@]3(C)[C@@H](CC[C@@]3(O)C(F)(F)C(F)(F)F)[C@@H]3CCC4=CC(=O)CCC4=C32)cc1 :: 0.7

[A] C[C@]12C[C@H](c3ccc(CNC(=O)Nc4ccc(C(=O)O)cc4)cc3)C3=C4CCC(=O)C=C4CC[C@H]3[C@@H]1CC[C@@]2(O)C(F)(F)C(F)(F)F
[B] CCNC(=O)NCc1ccc([C@H]2C[C@@]3(C)C(CC[C@@]3(O)C(F)(F)C(F)(F)F)C3CCC4=CC(=O)CCC4=C32)cc1 (stereo partly drawn)
Endpoint returns the identifier whose IC50 is numerically larger, either A or B . // return label of chosen record A

----------
# Experimental System: human progesterone receptor A (Homo sapiens, UniProt P06401)
# Construct: expressed in transfected cells; host or cells: SK-N-MC human neuroblastoma cells, stably transfected with pRChPR-A-neo and pMMTV-LUC
# Run Description: Progesterone receptor-antagonistic action in stably transfected SK-N-MC cells, MMTV-LUC reporter (PR-A)
# Format: cell-based
# Experimental Conditions: antagonistic potency vs 0.1 nmol/l promegestone, 24 hours
pIC50: −log10 of the molar value.
Reported Property: pIC50

C=CCNC(=O)NCc1ccc([C@H]2C[C@@]3(C)[C@@H](CC[C@@]3(O)C(F)(F)C(F)(F)F)[C@@H]3CCC4=CC(=O)CCC4=C32)cc1 [Example 18] :: 9.10
CCOC(=O)c1ccc(NC(=O)OCc2ccc([C@H]3C[C@@]4(C)[C@@H](CC[C@@]4(O)C(F)(F)C(F)(F)F)[C@@H]4CCC5=CC(=O)CCC5=C43)cc2)cc1 [Example 52] :: 10.00
CC(O)c1cccc([C@H]2C[C@@]3(C)C(CC[C@@]3(O)C(F)(F)C(F)(F)F)C3CCC4=CC(=O)CCC4=C32)c1 (mixture of isomers) [Example 11] :: 8.70
CCNC(=O)OCc1ccc([C@H]2C[C@@]3(C)[C@@H](CC[C@@]3(O)C(F)(F)C(F)(F)F)[C@@H]3CCC4=CC(=O)CCC4=C32)cc1 [Example 41] :: 10.05

[I] C[C@]12C[C@H](c3ccc(CCC#N)cc3)C3=C4CCC(=O)C=C4CC[C@H]3[C@@H]1CC[C@@]2(O)C(F)(F)C(F)(F)F [Example 9]
[II] CC(C)(C)NC(=O)OCc1ccc([C@H]2C[C@@]3(C)[C@@H](CC[C@@]3(O)C(F)(F)C(F)(F)F)[C@@H]3CCC4=CC(=O)CCC4=C32)cc1 [Example 44]
Parameter check: reported pIC50 is higher for which label, I or II ? Field: selected label. Fill in the label of the entry you choose. I
(I: 10.22, II: 10.00)

----------
# Experimental System: human progesterone receptor B (Homo sapiens, UniProt P06401)
# Run Description: Progesterone receptor-antagonistic action in stably transfected SK-N-MC cells, MMTV-LUC reporter (PR-B)
# Experimental Conditions: antagonistic potency vs 0.1 nmol/l promegestone, 24 hours
pIC50: −log10 of the molar value.
Reported Property: pIC50

C[C@]12C[C@H](c3ccc(CN=[N+]=[N-])cc3)C3=C4CCC(=O)C=C4CC[C@H]3[C@@H]1CC[C@@]2(O)C(F)(F)C(F)(F)F [Example 28] :: 10.10

[P] C[C@]12C[C@H](c3ccc(C#N)cc3)C3=C4CCC(=O)C=C4CC[C@H]3[C@@H]1CC[C@@]2(O)C(F)(F)C(F)(F)F [Example 30]
[Q] CCOC(=O)CNC(=O)NCc1ccc([C@H]2C[C@@]3(C)[C@@H](CC[C@@]3(O)C(F)(F)C(F)(F)F)[C@@H]3CCC4=CC(=O)CCC4=C32)cc1 [Example 21]
For the pair P and Q , which member has the lower pIC50 number? Provide the label of your selected option as the answer. Q

Where do these numbers come from? They come from patent US9206219B2.
